Assay: Kinetic solubility of compound in water at 500 uM measured after […] by UV-VIS absorption spectrophotometry
Type: physicochemical
Conditions: time 1.5 hrs, read-out: Kinetic_solubility
valueType: solubility kinetic at […], 500 µM (µM)
Number in µM, nothing else.

So what does the record say about solubility kinetic at […], 500 µM for "Nc1n[nH]c2cc(-c3ccc(=O)n(Cc4cccc(Cl)c4)c3)ccc12" ?
275

====

Assay: Kinetic solubility of compound in pH 7.4 Soerensen's buffer at 500 uM measured after […] by UV-VIS absorption spectrophotometry
Format: physicochemical
Conditions: time 1.5 hrs, read-out: Kinetic_solubility
Below: a set of entries, each annotated with reported solubility kinetic at […], 500 µM.
Number in µM, nothing else.

# moleculeSmiles, valueType, reading
measured = [
    ("Nc1n[nH]c2cc(-c3ccc(=O)n(Cc4cccc(Cl)c4)c3)ccc12", "solubility kinetic at […], 500 µM", 172),
]

So what does the record say about solubility kinetic at […], 500 µM for "Nc1n[nH]c2cc(-c3ccc(=O)n(Cc4ccccc4F)c3)ccc12" ?
466

Values were extracted from ChEMBL document CHEMBL4732118.
